- System: Staphylococcus aureus
- MEASUREMENT_DESCRIPTION: Antibacterial activity against Staphylococcus aureus 42 in presence of 1% bovine pulmonary surfactant by CLSI method
- Format: functional
- RUN_PARAMETERS: Staphylococcus aureus, 42, Pulmonary surfactant
Quick list: MIC per entry.
Report the figure in mg/L without appending any unit label.

>>> measured("CC(C)CCCCCCCC(=O)N[C@@H](Cc1c[nH]c2ccccc12)C(=O)N[C@H](CC(N)=O)C(=O)N[C@@H](CC(=O)O)C(=O)N[C@@H]1C(=O)NCC(=O)N[C@@H](CCCN)C(=O)N[C@@H](CC(=O)O)C(=O)N[C@H](C)C(=O)N[C@@H](CC(=O)O)C(=O)NCC(=O)N[C@H](CO)C(=O)N[C@@H]([C@H](C)CC(=O)O)C(=O)N[C@@H](CC(=O)c2ccccc2N)C(=O)O[C@H]1C")
64
>>> measured("CC[C@H](C)[C@@H]1NC(=O)[C@H]([C@H](C)CC(=O)O)NC(=O)[C@@H](CO)NC(=O)CNC(=O)[C@H](CC(=O)O)NC(=O)[C@@H](C)NC(=O)[C@H](CC(=O)O)NC(=O)[C@H](CCCN)NC(=O)CNC(=O)[C@@H](NC(=O)[C@H](CC(=O)O)NC(=O)[C@@H](CC(N)=O)NC(=O)[C@H](Cc2c[nH]c3ccccc23)NC(=O)CCCCCCCC(C)C)[C@H](C)OC1=O")
8
>>> measured("CC[C@H](C)[C@@H]1NC(=O)[C@H]([C@H](C)CC(=O)O)NC(=O)[C@@H](CC(N)=O)NC(=O)CNC(=O)[C@@H]([C@H](OC)C(=O)O)NC(=O)[C@@H](CO)NC(=O)[C@H](CC(=O)O)NC(=O)[C@H](C)NC(=O)CN(C)C(=O)[C@@H](NC(=O)[C@@H](NC(=O)[C@@H](CCC(=O)O)NC(=O)[C@H](Cc2c[nH]c3ccccc23)NC(=O)CCCCCCCC(C)C)[C@H](O)C(N)=O)[C@H](C)OC1=O")
16
>>> measured("CC(C)CCCCCCCC(=O)N[C@@H](Cc1c[nH]c2ccccc12)C(=O)N[C@H](CC(N)=O)C(=O)N[C@@H](CC(=O)O)C(=O)N[C@@H]1C(=O)NCC(=O)N[C@@H](CCCN)C(=O)N[C@@H](CC(=O)O)C(=O)N[C@H](CCCCN)C(=O)N[C@@H](CC(=O)O)C(=O)NCC(=O)N[C@H](CC(N)=O)C(=O)N[C@@H]([C@H](C)CC(=O)O)C(=O)N[C@@H](CC(=O)c2ccccc2N)C(=O)O[C@H]1C")
32

Turning now to a further record.
# returns recorded MIC (system: Staphylococcus aureus) for `CCCCCCCCCC(=O)N[C@@H](Cc1c[nH]c2ccccc12)C(=O)N[C@H](CC(N)=O)C(=O)N[C@@H](CC(=O)O)C(=O)N[C@@H]1C(=O)NCC(=O)N[C@@H](CCCN)C(=O)N[C@@H](CC(=O)O)C(=O)N[C@H](C)C(=O)N[C@@H](CC(=O)O)C(=O)NCC(=O)N[C@H](CO)C(=O)N[C@@H]([C@H](C)CC(=O)O)C(=O)N[C@@H](CC(=O)c2ccccc2N)C(=O)O[C@@H]1C`
64

====

- Tested on: Staphylococcus aureus
- MEASUREMENT_DESCRIPTION: Antibacterial activity against Staphylococcus aureus 42 in presence of 1% bovine pulmonary surfactant by CLSI method
- Type: functional
- RUN_PARAMETERS: Staphylococcus aureus, 42, Pulmonary surfactant
Quick list: MIC per entry.
Report the figure in µg/mL without appending any unit label.

Some entries whose results are on file:
>>> measured("CC[C@H](C)[C@@H]1NC(=O)[C@H](CCC(=O)O)NC(=O)[C@@H](CC(N)=O)NC(=O)CNC(=O)[C@H]([C@H](OC)C(=O)O)NC(=O)[C@@H](CO)NC(=O)[C@H](CC(=O)O)NC(=O)[C@H](C)NC(=O)CN(C)C(=O)[C@@H](NC(=O)[C@@H](NC(=O)[C@@H](CCC(=O)O)NC(=O)[C@H](Cc2c[nH]c3ccccc23)NC(=O)CCCCCCCC(C)C)[C@H](O)C(N)=O)[C@H](C)OC1=O")
8
>>> measured("CC[C@H](C)[C@@H]1NC(=O)[C@H]([C@H](C)CC(=O)O)NC(=O)[C@@H](CO)NC(=O)CNC(=O)[C@H]([C@H](OC)C(=O)O)NC(=O)[C@@H](CCCCN)NC(=O)[C@H](CC(=O)O)NC(=O)[C@H](C)NC(=O)CN(C)C(=O)[C@@H](NC(=O)[C@@H](NC(=O)[C@@H](CCC(=O)O)NC(=O)[C@H](Cc2c[nH]c3ccccc23)NC(=O)CCCCCCCC(C)C)[C@H](O)C(N)=O)[C@H](C)OC1=O")
16

Turning now to a further record.
Given the compound `CC(C)CCCCCCCC(=O)N[C@@H](Cc1c[nH]c2ccccc12)C(=O)N[C@H](CC(N)=O)C(=O)N[C@@H](CC(=O)O)C(=O)N[C@@H]1C(=O)NCC(=O)N[C@@H](CCCN)C(=O)N[C@@H](CC(=O)O)C(=O)N[C@H](C)C(=O)N[C@@H](CC(=O)O)C(=O)NCC(=O)N[C@H](C)C(=O)N[C@@H]([C@H](C)CC(=O)O)C(=O)N[C@@H](CC(=O)c2ccccc2N)C(=O)O[C@H]1C` , what is its reported MIC?
16

====

- Test system: Staphylococcus aureus
- MEASUREMENT_DESCRIPTION: Antibacterial activity against Staphylococcus aureus 42 in presence of 1% bovine pulmonary surfactant by CLSI method
- Format: functional
- RUN_PARAMETERS: Staphylococcus aureus, 42, Pulmonary surfactant
ATTRIBUTE_MEASURED: MIC (µg/mL)
Report the figure in µg/mL without appending any unit label.

Some entries whose results are on file:
>>> measured("CC[C@H](C)[C@@H]1NC(=O)[C@H](CCC(=O)O)NC(=O)[C@@H](CC(N)=O)NC(=O)CNC(=O)[C@H]([C@H](OC)C(=O)O)NC(=O)[C@@H](CC(N)=O)NC(=O)[C@H](CC(=O)O)NC(=O)[C@H](C)NC(=O)CN(C)C(=O)[C@@H](NC(=O)[C@@H](NC(=O)[C@@H](CCC(=O)O)NC(=O)[C@H](Cc2c[nH]c3ccccc23)NC(=O)CCCCCCCC(C)C)[C@H](O)C(N)=O)[C@H](C)OC1=O")
16
>>> measured("CC[C@H](C)[C@@H]1NC(=O)[C@H]([C@H](C)CC(=O)O)NC(=O)[C@@H](CC(N)=O)NC(=O)CNC(=O)[C@H]([C@H](OC)C(=O)O)NC(=O)[C@@H](C)NC(=O)[C@H](CC(=O)O)NC(=O)[C@H](C)NC(=O)CN(C)C(=O)[C@@H](NC(=O)[C@@H](NC(=O)[C@@H](CCC(=O)O)NC(=O)[C@H](Cc2c[nH]c3ccccc23)NC(=O)CCCCCCCC(C)C)[C@H](O)C(N)=O)[C@H](C)OC1=O")
32
>>> measured("CC(C)CCCCCCCC(=O)N[C@@H](Cc1c[nH]c2ccccc12)C(=O)N[C@H](CC(N)=O)C(=O)N[C@@H](CC(=O)O)C(=O)N[C@@H]1C(=O)NCC(=O)N[C@@H](CCCN)C(=O)N[C@@H](CC(=O)O)C(=O)N[C@H](C)C(=O)N[C@@H](CC(=O)O)C(=O)NCC(=O)N[C@H](CO)C(=O)N[C@@H]([C@H](C)CC(=O)O)C(=O)N[C@@H](C(C)C)C(=O)O[C@H]1C")
8
>>> measured("CC[C@H](C)[C@@H]1NC(=O)[C@H](CCC(=O)O)NC(=O)[C@@H](CC(N)=O)NC(=O)CNC(=O)[C@H]([C@H](OC)C(=O)O)NC(=O)[C@@H](C)NC(=O)[C@H](CC(=O)O)NC(=O)[C@H](C)NC(=O)CN(C)C(=O)[C@@H](NC(=O)[C@@H](NC(=O)[C@@H](CCC(=O)O)NC(=O)[C@H](Cc2c[nH]c3ccccc23)NC(=O)CCCCCCCC(C)C)[C@H](O)C(N)=O)[C@H](C)OC1=O")
8

Turning now to a further record.
Given the compound `CC[C@H](C)[C@@H]1NC(=O)[C@H](CCC(=O)O)NC(=O)[C@@H](CO)NC(=O)CNC(=O)[C@H]([C@H](OC)C(=O)O)NC(=O)[C@@H](CCCCN)NC(=O)[C@H](CC(=O)O)NC(=O)[C@H](C)NC(=O)CN(C)C(=O)[C@@H](NC(=O)[C@@H](NC(=O)[C@@H](CCC(=O)O)NC(=O)[C@H](Cc2c[nH]c3ccccc23)NC(=O)CCCCCCCC(C)C)[C@H](O)C(N)=O)[C@H](C)OC1=O` , what is its reported MIC?
128
